subjectOfTest: T1, human CD40 with C-terminal Flag tag on HEK293 cells (human, UniProt P25942 21-277)
T1 construct: whole, on cells; also called HEK293 cells highly expressing CD40; cell strain highly expressing human CD40
measurementProtocol: FACS, HEK293 cells transiently expressing human CD40
outcomeMeasure: pEC50
When answering, recall that pEC50 equals minus log10 of the concentration in mol/L, and write that number alone.

I'd like to know its pEC50. The binder in question is A12V3-Fc (Fc fusion) EVQVVESGGGLVQPGGSLRLSCAASGFTFSNYGMKWVRQAPGKGLEWVSTILSQGGSTYYADSVKGRFTISRDNSKNTLYLQMNSLRAEDTAVYYCLRVDWSDYSPRGQGTQVTVSSEPKSADKTHTCPPCPAPELLGGPSVFLFPPKPKDTLMISRTPEVTCVVVDVEHEDPEVKFNWYVDGVEVHNAKTKPREEQYNSTYRVVSVLTVLHQDWLNGKEYKCKVSSKAFPAPIEKTISKAKGQPREPQVYTLPPSRDELTKNQVSLTCLVKGFYPSDIAVEWESNGQPENNYKTTPPVLDSDGSFFLYSKLTVDKSRWQQGNVFSCSVMHEALHNHYTQKSLSLSPGK
8.76
